Each record is given 1.0 if its reported log10 vapour pressure (mmHg) is strictly below -2. Records at or above -2 are given 0.0.

- compound: "CC(C)=CCC(C)C"
  assigned_class: 0.0
- compound: "O=C(O)CCl"
  assigned_class: 0.0
- compound: "c1ccc2ncccc2c1"
  assigned_class: 0.0
- compound: "CCOC(=O)CCCCC(=O)OCC"
  assigned_class: 0.0
- compound: "CC(C)N(C(=O)SCC(Cl)=C(Cl)Cl)C(C)C"
  assigned_class: 1.0
- compound: "CN=C(O)Oc1cccc(C)c1"
  assigned_class: 1.0
- compound: "OCCOCCO"
  assigned_class: 1.0
- compound: "Cc1cccc(N)c1"
  assigned_class: 0.0
- compound: "O=C(O)c1cc(Cl)cc(Cl)c1Cl"
  assigned_class: 1.0
- compound: "C=CC=C"
  assigned_class: 0.0
- compound: "CCCCCC(=O)OC"
  assigned_class: 0.0
- compound: "OCCOc1ccccc1"
  assigned_class: 1.0
- compound: "N#CC(Cl)(Cl)Cl"
  assigned_class: 0.0
- compound: "CCCCCCCC(=O)CCCCCCC"
  assigned_class: 1.0
- compound: "Nc1ccc(/N=N/c2ccccc2)cc1"
  assigned_class: 1.0
- compound: "OCC(Br)CBr (configuration not stated)"
  assigned_class: 0.0
- compound: "CCCCCCC(C)OC(=O)COc1nc(F)c(Cl)c(N)c1Cl (configuration not stated)"
  assigned_class: 1.0

---

- compound_structure: "CC(C)=CC(C)(C)C"
  melting point / °C: -106
- compound_structure: "Cc1ccc(Oc2ccc(C)cc2)cc1"
  melting point / °C: 51
- compound_structure: "Cc1nc(C(F)(F)F)c(C(O)=Nc2c(Br)cc(OC(F)(F)F)cc2Br)s1"
  melting point / °C: 178
- compound_structure: "CCCCOc1ccc(OCCCC)cc1"
  melting point / °C: 45.5
- compound_structure: "CNC(=O)Oc1cc(C)c(N(C)C)c(C)c1"
  melting point / °C: 85
- compound_structure: "CC1(C)CCCC1"
  melting point / °C: -69.8
- compound_structure: "O=C(O)c1cccc(-c2ccccc2)c1O"
  melting point / °C: 186

---

reported_property: boiling point (°C)

- molecule: "CCCCOCCC"
  reported_property: "boiling point"
  quantitative_result: 118
- molecule: "C=CCOCCO"
  reported_property: "boiling point"
  quantitative_result: 158
- molecule: "CCCCC(CC)CO[Si](OCC(CC)CCCC)(OCC(CC)CCCC)OCC(CC)CCCC (configuration not stated)"
  reported_property: "boiling point"
  quantitative_result: 419
- molecule: "C=CC(C)(C)CCC"
  reported_property: "boiling point"
  quantitative_result: 104
- molecule: "C=CC(C)(C)O"
  reported_property: "boiling point"
  quantitative_result: 97
- molecule: "CCc1ccc(OC)cc1"
  reported_property: "boiling point"
  quantitative_result: 198
- molecule: "Cc1ccc(Cl)c(O)c1Cl"
  reported_property: "boiling point"
  quantitative_result: 237
- molecule: "CCCc1nccnc1C"
  reported_property: "boiling point"
  quantitative_result: 189
- molecule: "CCOC(=O)CC(C(C)=O)C(=O)OCC (configuration not stated)"
  reported_property: "boiling point"
  quantitative_result: 255
- molecule: "C1=Cc2ccccc2C1"
  reported_property: "boiling point"
  quantitative_result: 182
- molecule: "CC(=O)CCC=C(C)C"
  reported_property: "boiling point"
  quantitative_result: 174
- molecule: "FC(F)(F)S(F)(F)(F)(F)F"
  reported_property: "boiling point"
  quantitative_result: -20
- molecule: "CSc1ccccc1"
  reported_property: "boiling point"
  quantitative_result: 193
- molecule: "CC=Cc1ccc(OC)cc1"
  reported_property: "boiling point"
  quantitative_result: 234
- molecule: "CCC(C#N)CC#N (configuration not stated)"
  reported_property: "boiling point"
  quantitative_result: 264
- molecule: "C=CCC#N"
  reported_property: "boiling point"
  quantitative_result: 119
- molecule: "Cc1cc(C)c2ncccc2c1"
  reported_property: "boiling point"
  quantitative_result: 268

---

Each record is given y if its reported melting point is strictly below 40 °C. Records at or above 40 °C are given n.

- compound: "CCN1C(=O)OC(C)(C)C1=O"
  assigned_class: "n"
- compound: "CCCCCCCCCCCCCCCCC(=O)OC"
  assigned_class: "y"
- compound: "COC(=O)c1ccccc1O"
  assigned_class: "y"
- compound: "COc1cc(O)c2c(c1)OC(c1ccc(O)cc1)CC2=O (stereo not given)"
  assigned_class: "n"
- compound: "FC(F)CC(F)(F)F"
  assigned_class: "y"
- compound: "O=c1ccc2ccc(O)cc2o1"
  assigned_class: "n"
- compound: "COc1ccc2c(c1O)-c1cccc3c1C(C2)N(C)CC3 (stereo not given)"
  assigned_class: "n"
- compound: "CC(=O)Nc1nnc(S(N)(=O)=O)s1"
  assigned_class: "n"
- compound: "C[C@]12CC[C@H]3[C@@H](CCC4=CC(=O)CC[C@@H]43)[C@@H]1CC[C@@H]2OC(=O)CCc1ccccc1"
  assigned_class: "n"
- compound: "CC(C)(C#N)O[C@@H]1O[C@H](CO)[C@@H](O)[C@H](O)[C@H]1O"
  assigned_class: "n"
- compound: "O=S(=O)(c1ccccc1)c1ccccc1"
  assigned_class: "n"
- compound: "O=[N+]([O-])c1cc(Cl)c(O)c(Cl)c1"
  assigned_class: "n"
- compound: "CCCCCCC(=O)OCC"
  assigned_class: "y"
- compound: "CC(C)[C@@H](C)/C=C/[C@@H](C)[C@H]1CC[C@H]2C3=CC=C4C[C@@H](O)CC[C@]4(C)C3=CC[C@]12C"
  assigned_class: "n"
- compound: "O=C(OCCOc1ccc(Cl)cc1Cl)c1ccccc1"
  assigned_class: "n"
- compound: "CC=CC=C(C)C"
  assigned_class: "y"
- compound: "OCc1ccccc1Cl"
  assigned_class: "n"
- compound: "Oc1ccc(C2CCCCC2)cc1"
  assigned_class: "n"
- compound: "CCOC(=O)C(C(=O)OCC)=C(C(=O)OCC)C(=O)OCC"
  assigned_class: "n"
- compound: "Cc1cc2ccccc2n1C"
  assigned_class: "n"
- compound: "OC(c1ccc(Cl)cc1)(c1ccc(Cl)cc1)C(Cl)(Cl)Cl"
  assigned_class: "n"
- compound: "CCCCCCCCCC(=O)OC(=O)CCCCCCCCC"
  assigned_class: "y"
- compound: "C=C(CC)C(=O)c1ccc(OCC(=O)O)c(Cl)c1Cl"
  assigned_class: "n"
- compound: "Cc1cc(C)c(Br)cc1C"
  assigned_class: "n"
- compound: "CC1CCCS1 (stereo not given)"
  assigned_class: "y"
- compound: "COc1cc(CCN)cc(OC)c1OC"
  assigned_class: "y"
- compound: "Cc1cc(=O)n(-c2ccccc2)n1C"
  assigned_class: "n"
- compound: "CCCCN(CCCC)C(C(N)=O)c1ccc(OC)cc1 (stereo not given)"
  assigned_class: "n"
- compound: "COC(=O)CCCCCCC(=O)OC"
  assigned_class: "y"
- compound: "CCOC(=O)c1ccc2ccccc2c1"
  assigned_class: "y"
- compound: "O=C(O)c1cc(I)cc(I)c1O"
  assigned_class: "n"
- compound: "Nc1cc(Cl)ccc1Cl"
  assigned_class: "n"
- compound: "C=CCOCC=C"
  assigned_class: "y"
- compound: "NCCC(=O)N[C@@H](Cc1c[nH]cn1)C(=O)O"
  assigned_class: "n"
- compound: "Nc1cc(C(Cl)=C(Cl)Cl)c(S(N)(=O)=O)cc1S(N)(=O)=O"
  assigned_class: "n"
- compound: "CCCCCCCCCCCCCN"
  assigned_class: "y"
- compound: "c1cncc(-c2ccnc(-c3cccnc3)c2)c1"
  assigned_class: "n"
- compound: "C=CC=C"
  assigned_class: "y"
- compound: "c1ccc2c(c1)Cc1ccccc1O2"
  assigned_class: "n"
- compound: "COC"
  assigned_class: "y"
- compound: "Nc1cc(Cl)ccc1[N+](=O)[O-]"
  assigned_class: "n"
- compound: "CCCCCCCCCCCCCCCCOP(=O)(O)OCCCCCCCCCCCCCCCC"
  assigned_class: "n"
- compound: "O=C=Nc1cccc([N+](=O)[O-])c1"
  assigned_class: "n"
- compound: "CCOP(=S)(OCC)SCn1c(=O)oc2cc(Cl)ccc21"
  assigned_class: "n"
- compound: "O=C(O)/C=C/c1ccc(Cl)cc1Cl"
  assigned_class: "n"
- compound: "Nc1ccc(N)c2ccccc12"
  assigned_class: "n"
- compound: "Nc1nc(N)nc(NC2CC2)n1"
  assigned_class: "n"
- compound: "COc1ccccc1O"
  assigned_class: "y"
- compound: "CCC(=O)c1cc(C)ccc1O"
  assigned_class: "y"
- compound: "CCCCC(O)C(=O)O (stereo not given)"
  assigned_class: "n"
- compound: "Cc1c[nH]c(=O)[nH]c1=O"
  assigned_class: "n"
- compound: "CC(=O)Nc1ccc(C#N)cc1"
  assigned_class: "n"
- compound: "CCCCCCCCCCCCCCCCCC(=O)OCCO"
  assigned_class: "n"
- compound: "CC(C)(C)NCC(O)COc1ccccc1C#N (stereo not given)"
  assigned_class: "n"
- compound: "CC(C)OC(=O)COc1ccc(Cl)cc1Cl"
  assigned_class: "y"
- compound: "CC1(C)OC(=O)CC(=O)O1"
  assigned_class: "n"
